Values were extracted from ChEMBL document CHEMBL4184246.

tested on: OVCAR-3; assay: Growth inhibition of human OVCAR3 cells incubated for 7 days in absence of 400 U/ml IFNalpha by MTS assay; assay type: functional, cell-based; conditions: OVCAR-3, 168 h
Reported pEC50 values for the following molecules.
# log scale: pEC50 equals minus log10 of the concentration in mol/L

Some solved cases for reference:
COC[C@H]1O[C@H](O[C@@H]2C3=C(C(C)C)CC[C@]3(C)/C=C3\[C@@H](CC[C@]3(O)COC)[C@@H](C)[C@H]2O)[C@H](O)[C@H]2O[C@H]3O[C@]21O[C@@]3(C)[C@@H]1CO1 :: 4.40
COC[C@@]1(OC)CC[C@@H]2/C1=C\[C@@]1(C)CCC(C(C)C)=C1[C@@H](O[C@H]1O[C@@H]3COC(C)(C)O[C@H]3[C@H](O)[C@H]1O)[C@H](O)[C@@H]2C :: 3.85

Record COC[C@H]1CC[C@@H]2/C1=C\[C@@]1(C)CCC(C(C)C)=C1[C@@H](O[C@H]1O[C@@H]3COC(C)(C)O[C@H]3[C@H](O)[C@H]1O)[C@H](O)[C@@H]2C / OVCAR-3, pEC50 recorded as 4.54
